Data origin: patent US20260098080A1

Exercise: state measured Relative potency, lectin pathway, human serum for each of the binders provided.
- target of assay: human MASP-2 (in normal human serum) (human, UniProt O00187 16-686)
- Sequence (O00187 16-686 limits assumed): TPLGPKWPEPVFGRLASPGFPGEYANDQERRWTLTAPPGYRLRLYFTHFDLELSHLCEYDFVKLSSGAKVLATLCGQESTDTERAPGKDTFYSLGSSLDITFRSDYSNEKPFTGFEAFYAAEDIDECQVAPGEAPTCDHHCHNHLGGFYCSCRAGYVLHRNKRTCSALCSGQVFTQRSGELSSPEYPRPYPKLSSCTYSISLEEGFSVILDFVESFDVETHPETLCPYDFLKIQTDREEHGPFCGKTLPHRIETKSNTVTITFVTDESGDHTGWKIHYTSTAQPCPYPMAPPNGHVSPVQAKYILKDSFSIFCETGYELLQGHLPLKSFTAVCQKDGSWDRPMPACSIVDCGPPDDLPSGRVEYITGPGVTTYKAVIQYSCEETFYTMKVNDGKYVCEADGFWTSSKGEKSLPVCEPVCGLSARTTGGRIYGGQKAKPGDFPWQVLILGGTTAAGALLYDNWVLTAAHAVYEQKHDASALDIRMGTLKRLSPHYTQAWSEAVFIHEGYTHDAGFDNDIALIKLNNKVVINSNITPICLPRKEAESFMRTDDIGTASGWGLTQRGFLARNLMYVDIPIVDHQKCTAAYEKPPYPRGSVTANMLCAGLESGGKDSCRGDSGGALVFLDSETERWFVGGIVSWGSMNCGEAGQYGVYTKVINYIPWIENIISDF
- experiment: cell-based or functional assay
Where no end group is shown, it is not given here.
I'd appreciate it if you included the unit after the number.

Prompt line: Item under review: EVO222 (designed binder, not fully specified; cysteine pairing not given here, Modified TFPI-D2 Kunitz domain; made as m1) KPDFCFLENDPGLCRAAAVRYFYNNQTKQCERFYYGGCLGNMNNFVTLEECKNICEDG . Reported Relative potency, lectin pathway, human serum?
Response line: 14.1 fold vs EVO2

Prompt line: Item under review: EVO23 (designed binder, not fully specified; cysteine pairing not given here, Modified TFPI-D2 Kunitz domain; made as m1) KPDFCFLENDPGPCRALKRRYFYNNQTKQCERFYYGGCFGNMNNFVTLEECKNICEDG . Reported Relative potency, lectin pathway, human serum?
Response line: 47.1 fold vs EVO2
